# study-conditions: in acetonitrile, 303.45 K
readout-kind: solubility (mole fraction)
Answers are plain numbers.

Consider the compound COC(=O)c1ccccc1S(N)(=O)=O and give its measured solubility (mole fraction).
0.0594

---

# study-conditions: in acetonitrile, 318.65 K
readout-kind: solubility (mole fraction)
Answers are plain numbers.

Consider the compound COC(=O)c1ccccc1S(N)(=O)=O and give its measured solubility (mole fraction).
0.0975

---

# study-conditions: in isopropanol, 312.15 K
readout-kind: solubility (mole fraction)
Answers are plain numbers.

Consider the compound COC(=O)c1ccccc1S(N)(=O)=O and give its measured solubility (mole fraction).
0.00894

---

# study-conditions: in isobutanol, 308.05 K
readout-kind: solubility (mole fraction)
Answers are plain numbers.

Consider the molecule COC(=O)c1ccccc1S(N)(=O)=O and give its measured solubility (mole fraction).
0.00479

---

# study-conditions: in 2-butanone, 298.75 K
readout-kind: solubility (mole fraction)
Numbers only.

Consider the compound COC(=O)c1ccccc1S(N)(=O)=O and give its measured solubility (mole fraction).
0.0609

---

# study-conditions: in n-pentanol, 324.15 K
readout-kind: solubility (mole fraction)
One number for each entry.

Consider the compound COC(=O)c1ccccc1S(N)(=O)=O and give its measured solubility (mole fraction).
0.011

---

# study-conditions: in methyl acetate, 273.15 K
readout-kind: solubility (mole fraction)
Answers are plain numbers.

Consider the compound COC(=O)c1ccccc1S(N)(=O)=O and give its measured solubility (mole fraction).
0.0162

---

# study-conditions: in cyclopentanone, 313.85 K
readout-kind: solubility (mole fraction)
Answers are plain numbers.

Consider the compound COC(=O)c1ccccc1S(N)(=O)=O and give its measured solubility (mole fraction).
0.145

---

# study-conditions: in n-pentanol, 288.15 K
readout-kind: solubility (mole fraction)
Numbers only.

Consider the compound COC(=O)c1ccccc1S(N)(=O)=O and give its measured solubility (mole fraction).
0.00197

---

# study-conditions: in acetone, 283.15 K
readout-kind: solubility (mole fraction)

Consider the molecule COC(=O)c1ccccc1S(N)(=O)=O and give its measured solubility (mole fraction).
0.0561

---

# study-conditions: in cyclopentanone, 293.85 K
readout-kind: solubility (mole fraction)
Give bare numbers.

Consider the compound COC(=O)c1ccccc1S(N)(=O)=O and give its measured solubility (mole fraction).
0.092

---

# study-conditions: in ethanol, 298.05 K
readout-kind: solubility (mole fraction)
Answers are plain numbers.

Consider the molecule COC(=O)c1ccccc1S(N)(=O)=O and give its measured solubility (mole fraction).
0.00692

---

# study-conditions: in acetonitrile, 324.15 K
readout-kind: solubility (mole fraction)
Answers are plain numbers.

Consider the compound COC(=O)c1ccccc1S(N)(=O)=O and give its measured solubility (mole fraction).
0.115

---

# study-conditions: in ethyl formate, 293.85 K
readout-kind: solubility (mole fraction)
Numbers only.

Consider the compound COC(=O)c1ccccc1S(N)(=O)=O and give its measured solubility (mole fraction).
0.0215

---

# study-conditions: in ethanol, 312.15 K
readout-kind: solubility (mole fraction)
Give bare numbers.

Consider the molecule COC(=O)c1ccccc1S(N)(=O)=O and give its measured solubility (mole fraction).
0.0134

---

# study-conditions: in cyclopentanone, 287.95 K
readout-kind: solubility (mole fraction)
One number for each entry.

Consider the molecule COC(=O)c1ccccc1S(N)(=O)=O and give its measured solubility (mole fraction).
0.0795

---

# study-conditions: in n-butanol, 283.15 K
readout-kind: solubility (mole fraction)
Answers are plain numbers.

Consider the molecule COC(=O)c1ccccc1S(N)(=O)=O and give its measured solubility (mole fraction).
0.00177

---

# study-conditions: in n-pentanol, 308.05 K
readout-kind: solubility (mole fraction)

Consider the compound COC(=O)c1ccccc1S(N)(=O)=O and give its measured solubility (mole fraction).
0.00534

---

# study-conditions: in methyl acetate, 283.15 K
readout-kind: solubility (mole fraction)
Give bare numbers.

Consider the molecule COC(=O)c1ccccc1S(N)(=O)=O and give its measured solubility (mole fraction).
0.0235

---

# study-conditions: in isobutanol, 283.15 K
readout-kind: solubility (mole fraction)

Consider the molecule COC(=O)c1ccccc1S(N)(=O)=O and give its measured solubility (mole fraction).
0.00129

---

# study-conditions: in acetone, 318.65 K
readout-kind: solubility (mole fraction)
One number for each entry.

Consider the compound COC(=O)c1ccccc1S(N)(=O)=O and give its measured solubility (mole fraction).
0.141

---

# study-conditions: in 2-butanone, 308.15 K
readout-kind: solubility (mole fraction)
Numbers only.

Consider the compound COC(=O)c1ccccc1S(N)(=O)=O and give its measured solubility (mole fraction).
0.0784

---

# study-conditions: in isobutanol, 288.15 K
readout-kind: solubility (mole fraction)

Consider the compound COC(=O)c1ccccc1S(N)(=O)=O and give its measured solubility (mole fraction).
0.00171

---

# study-conditions: in n-butanol, 288.15 K
readout-kind: solubility (mole fraction)

Consider the compound COC(=O)c1ccccc1S(N)(=O)=O and give its measured solubility (mole fraction).
0.00234

---

# study-conditions: in ethyl formate, 273.15 K
readout-kind: solubility (mole fraction)
Give bare numbers.

Consider the compound COC(=O)c1ccccc1S(N)(=O)=O and give its measured solubility (mole fraction).
0.00969

---

# study-conditions: in 2-pentanone, 318.65 K
readout-kind: solubility (mole fraction)
Numbers only.

Consider the compound COC(=O)c1ccccc1S(N)(=O)=O and give its measured solubility (mole fraction).
0.0695

---

# study-conditions: in 2-pentanone, 298.75 K
readout-kind: solubility (mole fraction)
Give bare numbers.

Consider the molecule COC(=O)c1ccccc1S(N)(=O)=O and give its measured solubility (mole fraction).
0.0409

---

# study-conditions: in ethyl formate, 298.75 K
readout-kind: solubility (mole fraction)

Consider the compound COC(=O)c1ccccc1S(N)(=O)=O and give its measured solubility (mole fraction).
0.0256

---

# study-conditions: in acetonitrile, 308.15 K
readout-kind: solubility (mole fraction)
Numbers only.

Consider the molecule COC(=O)c1ccccc1S(N)(=O)=O and give its measured solubility (mole fraction).
0.0695

---

# study-conditions: in cyclopentanone, 324.15 K
readout-kind: solubility (mole fraction)
Answers are plain numbers.

Consider the compound COC(=O)c1ccccc1S(N)(=O)=O and give its measured solubility (mole fraction).
0.179

---

# study-conditions: in methanol, 272.15 K
readout-kind: solubility (mole fraction)
Answers are plain numbers.

Consider the compound COC(=O)c1ccccc1S(N)(=O)=O and give its measured solubility (mole fraction).
0.00311

---

# study-conditions: in isopropanol, 324.15 K
readout-kind: solubility (mole fraction)
Give bare numbers.

Consider the compound COC(=O)c1ccccc1S(N)(=O)=O and give its measured solubility (mole fraction).
0.0161

---

# study-conditions: in ethyl formate, 324.15 K
readout-kind: solubility (mole fraction)

Consider the compound COC(=O)c1ccccc1S(N)(=O)=O and give its measured solubility (mole fraction).
0.0578

---

# study-conditions: in n-butanol, 312.15 K
readout-kind: solubility (mole fraction)
Answers are plain numbers.

Consider the molecule COC(=O)c1ccccc1S(N)(=O)=O and give its measured solubility (mole fraction).
0.00801

---

# study-conditions: in isopentanol, 318.15 K
readout-kind: solubility (mole fraction)
One number for each entry.

Consider the compound COC(=O)c1ccccc1S(N)(=O)=O and give its measured solubility (mole fraction).
0.00764

---

# study-conditions: in isopentanol, 303.15 K
readout-kind: solubility (mole fraction)
Answers are plain numbers.

Consider the compound COC(=O)c1ccccc1S(N)(=O)=O and give its measured solubility (mole fraction).
0.00381

---

# study-conditions: in n-pentanol, 312.15 K
readout-kind: solubility (mole fraction)
Give bare numbers.

Consider the molecule COC(=O)c1ccccc1S(N)(=O)=O and give its measured solubility (mole fraction).
0.0065

---

# study-conditions: in ethanol, 288.15 K
readout-kind: solubility (mole fraction)
Numbers only.

Consider the compound COC(=O)c1ccccc1S(N)(=O)=O and give its measured solubility (mole fraction).
0.0042

---

# study-conditions: in isopentanol, 324.15 K
readout-kind: solubility (mole fraction)
Answers are plain numbers.

Consider the molecule COC(=O)c1ccccc1S(N)(=O)=O and give its measured solubility (mole fraction).
0.00989

---

# study-conditions: in ethyl formate, 318.65 K
readout-kind: solubility (mole fraction)
Answers are plain numbers.

Consider the molecule COC(=O)c1ccccc1S(N)(=O)=O and give its measured solubility (mole fraction).
0.049

---

# study-conditions: in ethyl formate, 308.15 K
readout-kind: solubility (mole fraction)
Give bare numbers.

Consider the molecule COC(=O)c1ccccc1S(N)(=O)=O and give its measured solubility (mole fraction).
0.0351

---

# study-conditions: in isopentanol, 283.15 K
readout-kind: solubility (mole fraction)
One number for each entry.

Consider the compound COC(=O)c1ccccc1S(N)(=O)=O and give its measured solubility (mole fraction).
0.00135

---

# study-conditions: in methanol, 303.15 K
readout-kind: solubility (mole fraction)
Answers are plain numbers.

Consider the molecule COC(=O)c1ccccc1S(N)(=O)=O and give its measured solubility (mole fraction).
0.0171

---

# study-conditions: in n-pentanol, 298.05 K
readout-kind: solubility (mole fraction)
Numbers only.

Consider the compound COC(=O)c1ccccc1S(N)(=O)=O and give its measured solubility (mole fraction).
0.0033
